Numbers sourced from the MegaScale stability set (Tsuboyama et al. 2023).

Below is a list of entries, each paired with its recorded folding stability dG value.
B1: r16_88_TrROS_Hall (parent)
chain: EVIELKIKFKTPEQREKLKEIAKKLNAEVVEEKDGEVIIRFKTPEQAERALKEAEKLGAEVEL

Variants of: B1
experiment-summary: folding stability dG (cDNA display proteolysis); higher = more stable
condition: PBS, room temperature
readout: folding stability dG (kcal/mol)

> print(dat)
    mutation.string               readout   val
 1             K19S  folding stability dG  4.25
 2             R40I  folding stability dG  4.47
 3             E62W  folding stability dG  3.87
 4             E60T  folding stability dG   4.4
 5             E28L  folding stability dG  4.24
 6             E62Y  folding stability dG  4.12
 7             K17L  folding stability dG  4.53
 8             I21T  folding stability dG  4.33
 9              K6I  folding stability dG  4.47
10              F9V  folding stability dG  4.27
11             E28K  folding stability dG  4.17
12              I7E  folding stability dG  2.11
13             E45S  folding stability dG  4.29
14             I21C  folding stability dG  4.31
15             P12A  folding stability dG  4.39
16              L5F  folding stability dG  4.91
17              E1Y  folding stability dG  4.34
18              F9W  folding stability dG  4.61
19             K42V  folding stability dG  4.19
20             K56L  folding stability dG   4.5
21              E4A  folding stability dG  4.69
22             F41Q  folding stability dG  2.23
23             E45C  folding stability dG  4.77
24             V30D  folding stability dG  4.27
25             I39C  folding stability dG  4.35
26             A22T  folding stability dG  4.36
27             K56C  folding stability dG  4.41
28             E28V  folding stability dG  4.41
29              K6S  folding stability dG  4.26
30             A50E  folding stability dG  3.34
31             L63M  folding stability dG  4.23
32             K33A  folding stability dG  4.37
33             E31F  folding stability dG  4.61
